Measured MIC by item
Tested on: Aspergillus niger
measurement-protocol: Antifungal activity against Aspergillus niger MTCC 282 by broth microdilution method
Type: functional
experimental-endpoint: MIC

>  <substance-smiles>
Cc1ccc(-c2nnc(-c3cccnc3)n2Nc2nc3ccc(F)cc3s2)cc1

>  <system-name>
Aspergillus niger

>  <experimental-result>
500 µg/mL

$$$$
>  <substance-smiles>
Cc1ccc(-c2nnc(-c3cccnc3)n2Nc2nc3c([N+](=O)[O-])cccc3s2)cc1

>  <system-name>
Aspergillus niger

>  <experimental-result>
500 µg/mL

$$$$
>  <substance-smiles>
Cc1ccc(-c2nnc(-c3cccnc3)n2Nc2nc3c(Cl)cccc3s2)cc1

>  <system-name>
Aspergillus niger

>  <experimental-result>
> 1000 µg/mL

$$$$
>  <substance-smiles>
NNc1nc2cc(Cl)c(Cl)cc2s1

>  <system-name>
Aspergillus niger

>  <experimental-result>
500 µg/mL

$$$$
>  <substance-smiles>
NNc1nc2ccc([N+](=O)[O-])cc2s1

>  <system-name>
Aspergillus niger

>  <experimental-result>
500 µg/mL

$$$$
>  <substance-smiles>
NNc1nc2ccc(Cl)cc2s1

>  <system-name>
Aspergillus niger

>  <experimental-result>
200 µg/mL

$$$$
>  <substance-smiles>
Cc1ccc(-c2nnc(-c3cccnc3)n2Nc2nc3ccc(C)cc3s2)cc1

>  <system-name>
Aspergillus niger

>  <experimental-result>
1000 µg/mL

$$$$
>  <substance-smiles>
Cc1ccc(-c2nnc(-c3cccnc3)o2)cc1

>  <system-name>
Aspergillus niger

>  <experimental-result>
500 µg/mL

$$$$
>  <substance-smiles>
Cc1ccc(-c2nnc(-c3cccnc3)n2Nc2nc3ccc([N+](=O)[O-])cc3s2)cc1

>  <system-name>
Aspergillus niger

>  <experimental-result>
500 µg/mL

$$$$
>  <substance-smiles>
Cc1cccc2sc(NN)nc12

>  <system-name>
Aspergillus niger

>  <experimental-result>
250 µg/mL

$$$$

###

Measured MIC by item
System: Mycobacterium tuberculosis
measurement-protocol: Antimycobacterial activity against Mycobacterium tuberculosis H37Rv after up to 28 days
Type: functional
particulars: 672 h

>  <substance-smiles>
Cc1ccc2nc(NN)sc2c1

>  <system-name>
Mycobacterium tuberculosis

>  <MIC, µg/mL>
1000

$$$$
>  <substance-smiles>
Cc1ccc(-c2nnc(-c3cccnc3)n2Nc2nc3ccc(F)cc3s2)cc1

>  <system-name>
Mycobacterium tuberculosis

>  <MIC, µg/mL>
200

$$$$
>  <substance-smiles>
Cc1ccc(-c2nnc(-c3cccnc3)n2Nc2nc3c(C)cccc3s2)cc1

>  <system-name>
Mycobacterium tuberculosis

>  <MIC, µg/mL>
500

$$$$
>  <substance-smiles>
NNc1nc2ccc(F)cc2s1

>  <system-name>
Mycobacterium tuberculosis

>  <MIC, µg/mL>
250

$$$$
>  <substance-smiles>
Cc1ccc(-c2nnc(-c3cccnc3)n2Nc2nc3ccc(Br)cc3s2)cc1

>  <system-name>
Mycobacterium tuberculosis

>  <MIC, µg/mL>
50

$$$$

###

System: Aspergillus niger
measurement-protocol: Antifungal activity against Aspergillus niger MTCC 282 by broth microdilution method
Format: functional
Measured MIC by item
experimental-endpoint: MIC (µg/mL)

>  <substance-smiles>
Cc1ccc(-c2nnc(-c3cccnc3)n2Nc2nc3c(C)cccc3s2)cc1

>  <inequality-sign>
=

>  <experimental-result>
250

$$$$
>  <substance-smiles>
COC1=CC(=O)C[C@@H](C)[C@]12Oc1c(Cl)c(OC)cc(OC)c1C2=O

>  <inequality-sign>
=

>  <experimental-result>
100

$$$$
>  <substance-smiles>
NNc1nc2ccc(F)cc2s1

>  <inequality-sign>
>

>  <experimental-result>
1000

$$$$
>  <substance-smiles>
NNc1nc2ccc(Br)cc2s1

>  <inequality-sign>
=

>  <experimental-result>
500

$$$$
>  <substance-smiles>
NNc1nc2c(Cl)cccc2s1

>  <inequality-sign>
=

>  <experimental-result>
500

$$$$
>  <substance-smiles>
COc1ccc2nc(NN)sc2c1

>  <inequality-sign>
=

>  <experimental-result>
500

$$$$
>  <substance-smiles>
COc1ccc2nc(Nn3c(-c4ccc(C)cc4)nnc3-c3cccnc3)sc2c1

>  <inequality-sign>
=

>  <experimental-result>
500

$$$$
>  <substance-smiles>
Cc1ccc(-c2nnc(-c3cccnc3)n2Nc2nc3ccc(Br)cc3s2)cc1

>  <inequality-sign>
=

>  <experimental-result>
500

$$$$
>  <substance-smiles>
Cc1ccc(-c2nnc(-c3cccnc3)n2Nc2nc3ccc(Cl)cc3s2)cc1

>  <inequality-sign>
=

>  <experimental-result>
500

$$$$
>  <substance-smiles>
Cc1ccc(-c2nnc(-c3cccnc3)n2Nc2nc3cc(Cl)c(Cl)cc3s2)cc1

>  <inequality-sign>
=

>  <experimental-result>
500

$$$$
>  <substance-smiles>
Cc1ccc2nc(NN)sc2c1

>  <inequality-sign>
=

>  <experimental-result>
1000

$$$$
>  <substance-smiles>
NNc1nc2c([N+](=O)[O-])cccc2s1

>  <inequality-sign>
=

>  <experimental-result>
250

$$$$
